assay: NCI Yeast Anticancer Drug Screen. Data for the mlh1 rad18 strain (AID 175); conditions: S. cerevisiae mlh1 rad18 strain growth inhibition, stronger effect = higher value; at 50.0 µM unless noted
Compounds without any hit were thinned out: in the full panel of roughly 79,000, 15% have a hit.
measured.property: growth inhibition (%)
Numbers only, in %.

- molecule: "Clc1ccc(C2ON=C(c3ccccc3)N2C23CC4CC(CC(C4)C2)C3)cc1Cl (centres undefined)"
  readout.units: "%"
  observed: -1
- molecule: "CS(=O)(=O)OCCN(CCOS(C)(=O)=O)c1ccc([N+](=O)[O-])cc1[N+](=O)[O-]"
  readout.units: "%"
  observed: 13.6
- molecule: "Fc1ccccc1C1SCc2nc3cc4ccccc4cc3n21 (centres undefined)"
  readout.units: "%"
  observed: 40
- molecule: "Cc1cc(Nc2nnc(-c3cccnc3Oc3ccccc3)s2)ccc1Br"
  readout.units: "%"
  observed: -5.35
- molecule: "O=C1OC(=O)C2C3CC(C(Br)C3Br)C12 (centres undefined)"
  readout.units: "%"
  observed: 21.5

# batch size: 5; output growth inhibition per entry
1. CN(C)C(C#CCO)c1ccccc1 (centres undefined)
2. Cc1cc([N+](=O)[O-])ccc1NC(=O)n1nnc2cc(Cl)ccc21
3. CC1(C)OC2C(/C=C\C(=O)c3ccccc3)OC(n3ccc(=O)[nH]c3=O)C2O1 (centres undefined)
4. CN(C)CCCNC(=O)N/N=C/c1ccccc1
5. CC(C)c1cccc(C(C)C)c1NC(=O)C(=O)Cc1nc2ccc([N+](=O)[O-])cc2[nH]c1=O

# output
4.8
6.9
-1.5
-21.1
40.8

List the reported growth inhibition of each molecule below.
1. COc1ccc(CCNCC(O)CSc2ccc(Cl)cc2)cc1OC (centres undefined)
2. COC1=CC(=O)c2cc3ccc(OC)c(N)c3nc2C1=O
3. CC(C)(C)NNC(=O)CCn1[nH]c(=O)c(Cl)c(Cl)c1=O

# output
30.6
-10.9
-12.3

# batch: return growth inhibition for each of the 6 molecules below
1. C=C1CC(COc2ccc3c(C)c(Cl)c(=O)oc3c2)(c2ccccc2)OC1=O (centres undefined)
2. O=[N+]([O-])c1c[nH]c2ncnc(Cl)c12
3. CC(C)=CC(=O)O
4. CSc1nc2c([nH]1)c(=O)n(C)c(=S)n2C
5. Nc1nc2c(c(=O)[nH]1)N(C=O)C(CCNc1ccc(C(=O)NC(CCC(=O)O)C(=O)O)cc1)CN2 (centres undefined)
6. O=c1[nH]c(C(F)(F)F)c([N+](=O)[O-])c(=O)[nH]1

# output
37.6
6.8
7.9
-4.25
3.25
-4.7

Kindly give each listed record's growth inhibition.
1. O=C(C[n+]1csc2ccccc21)c1ccccc1
2. Cc1ccnc(NC(=O)CCc2ccccc2)c1
3. COc1ccc(-c2cc(-c3ccco3)c(C#N)c(=O)[nH]2)cc1
4. CCCC1SCC(=O)N1c1nncs1 (centres undefined)
5. CCCCCCOc1ccccc1CO

# output
3.8
-5.85
27.3
-30.6
10.8
